FYI, the data here is from paper PMC11504387.

Assay: Photostability of O/W emulsions under solar simulator
Assay type: physicochemical
Conditions: residual in vitro SPF after solar irradiation; O/W emulsion on PMMA
measured-attribute: %SPFeff. (%)

compound="C(=C\\c1nc2ccccc2s1)/c1ccccc1 [BZTst1, (E)-2-styrylbenzo[d]thiazole]" u=% recorded_number=99.14
compound="Oc1ccc(/C=C/c2nc3ccccc3s2)cc1 [BZTst2]" u=% recorded_number=104.43
compound="O=S(=O)(O)c1ccc2[nH]c(-c3ccccc3)nc2c1 [PBSA, reference compound]" u=% recorded_number=103.66
compound="COc1ccc(/C=C/c2nc3ccccc3s2)cc1O [BZTst5]" u=% recorded_number=100.00
compound="COc1cc(/C=C/c2nc3ccccc3s2)ccc1O [BZTst6]" u=% recorded_number=93.59
compound="COc1ccc(/C=C/c2nc3ccccc3s2)cc1 [BZTst3, (E)-2-(4-methoxystyryl)benzo[d]thiazole]" u=% recorded_number=103.21
compound="Oc1ccc(/C=C/c2nc3ccccc3s2)cc1O [BZTst4]" u=% recorded_number=104.02
